test system: CAOV3; assay: Confirmatory qHTS for gynecologic anti-cancer compounds from libraries of approved drugs and bioactive compounds; conditions: gynecologic cancer cell panel viability, ATPlite luminescence, 48 h; series mostly up to 57.6 µM; also: nearly all actives have a fitted effect of over 55% in size
Results filed as inconclusive are left out. The source made the active and inactive calls. Calls follow the shape of the dose curve; as a rule, active = well fitted cell-killing curve with a large enough effect; inconclusive = small, poorly fitted or top-dose-only effect, or effect the other way; inactive = no such curve, though single readings can be large or run the other way.
Lab note: assign the record to one of TRUE for active, FALSE for inactive

CCc1nc(C(N)=O)c(Nc2ccc(N3CCC(N4CCN(C)CC4)CC3)c(OC)c2)nc1NC1CCOCC1	TRUE
COc1cc2c(cc1-c1c(C)noc1C)ncc1[nH]c(=O)n(C(C)c3ccccn3)c12 (centres undefined)	TRUE
CCN[C@H]1C[C@H](C)S(=O)(=O)c2sc(S(N)(=O)=O)cc21	FALSE
CCS(=O)(=O)c1cccc(-c2cc(C(=O)NC3CCN(C)CC3)c(C)c3[nH]c4ncc(C)cc4c23)c1	TRUE
O=c1cc(CN2CCOCC2)occ1OCCCCCSc1ccnc2cc(C(F)(F)F)ccc12	FALSE

QUERY: # outcome recorded in this test, key = C=CC(=O)Nc1cc2c(Nc3ccc(F)c(Cl)c3)ncnc2cc1OCCCN1CCOCC1
RESULT: TRUE

QUERY: # outcome recorded in this test, key = CNc1nccc(-c2cccnc2Oc2cc(C(=O)Nc3cccc(C(F)(F)F)c3)ccc2C)n1
RESULT: TRUE

QUERY: # outcome recorded in this test, key = NC(=O)c1cnc(-c2ccc(C3(N)CCC3)cc2)c(-c2ccccc2)c1
RESULT: TRUE

QUERY: # outcome recorded in this test, key = COc1cc(Nc2ncc(F)c(Nc3ccc4c(n3)N(COP(=O)(O)O)C(=O)C(C)(C)O4)n2)cc(OC)c1OC
RESULT: TRUE

====

tested on: CAOV3; experiment: Confirmatory qHTS for gynecologic anti-cancer compounds from libraries of approved drugs and bioactive compounds; settings: gynecologic cancer cell panel viability, ATPlite luminescence, 48 h; series mostly up to 57.6 µM; also: nearly all actives have a fitted effect of over 55% in size
Inconclusive results are not listed. Activity calls are given as the source filed them. Calls follow the shape of the dose curve; as a rule, active = well fitted cell-killing curve with a large enough effect; inconclusive = small, poorly fitted or top-dose-only effect, or effect the other way; inactive = no such curve, though single readings can be large or run the other way.
Lab note: assign the record to one of yes (1) for active, no (0) for inactive

Cc1ccc(C(=O)N(CCCN)C(c2oc3cc(Cl)ccc3c(=O)c2Cc2ccccc2)C(C)C)cc1 (centres undefined)	yes (1)
CN1C2CCC1CC(OC(=O)[C@H](CO)c1ccccc1)C2 (some centres undefined)	no (0)
C[C@]12CCC(=O)C=C1[C@@H]1C[C@@H]1[C@H]1[C@@H]3[C@@H]4C[C@@H]4[C@@]4(CCC(=O)O4)[C@@]3(C)CC[C@@H]12	no (0)

QUERY: # outcome recorded in this test, key = CCC1C(=O)N(C)c2cnc(Nc3ccc(C(=O)NC4CCN(C)CC4)cc3OC)nc2N1C1CCCC1 (centres undefined)
RESULT: yes (1)

QUERY: # outcome recorded in this test, key = CCOc1cc2ncc(C#N)c(Nc3ccc(F)c(Cl)c3)c2cc1NC(=O)/C=C/CN(C)C
RESULT: yes (1)

QUERY: # outcome recorded in this test, key = CN1CCN(CCOc2cc(OC3CCOCC3)c3c(Nc4c(Cl)ccc5c4OCO5)ncnc3c2)CC1
RESULT: no (0)

QUERY: # outcome recorded in this test, key = Nc1ccccc1NC(=O)c1ccc(CNc2nccc(-c3cccnc3)n2)cc1
RESULT: yes (1)

QUERY: # outcome recorded in this test, key = COc1ccc(-c2ccc3c(N4CCOCC4C)nc(N4CCOCC4C)nc3n2)cc1CO (centres undefined)
RESULT: no (0)

QUERY: # outcome recorded in this test, key = O=C(NOCC1CC1)c1ccc(F)c(F)c1Nc1ccc(I)cc1Cl
RESULT: no (0)

FYI, the data here is from PubChem BioAssay AID1345085.
